Here's what we have: pIC50 numbers for ALK (Homo sapiens, UniProt Q9UM73).
pIC50: −log10 of the molar value.

{"columns": ["structure.notation", "recorded.value"],
 "data": [
  ["COc1cc(C2=CCCN(C(C)C)C2)ccc1Nc1nc(Nc2ccccc2C(N)=O)c2cc[nH]c2n1", "9.00 to 9.60"],
  ["COc1cc(N2CCC(N3CCOCC3)CC2)ccc1Nc1nc(Nc2cc(F)ccc2C(N)=O)c2cc[nH]c2n1", "9.00 to 9.60"],
  ["COc1cc2c(cc1Nc1nc(Nc3cccc(F)c3C(=O)NCC(C)C)c3cc[nH]c3n1)N(C(=O)CN(C)C)CC2", "8.40 to 8.90"],
  ["CCNC(=O)c1c(F)cc(F)cc1Nc1nc(Nc2cc3c(cc2OC)CCN3C(=O)CN(C)C)nc2[nH]ccc12", "9.00 to 9.60"],
  ["COc1cc(N2CCC(O)CC2)ccc1Nc1nc(Nc2cc(F)c(F)cc2C(N)=O)c2cc[nH]c2n1", "9.00 to 9.60"]
]}

Note: attention shifts to another entry.
COCCN(C)CC(=O)N1CCc2cc(OC)c(Nc3nc(Nc4cccc(F)c4C(N)=O)c4cc[nH]c4n3)cc21 has a reported pIC50 of 8.40 to 8.90
